The measured values listed here are drawn from patent US9149038B2.

# Tested on: Key Grass and Sedge Weeds as well as Grass Crops
# TEST: Post-Emergent Test II: postemergent herbicidal activity, visual rating after 14 d (Table 8)
# Assay type: in vivo
# CONDITION SUMMARY: post-emergence, 336 h, maize, corn (Zea mays), 35 g ai/ha, read-out: Visual Growth Reduction (%) 14 Days After Application ZEAMX
MEASURED ENDPOINT: pest or weed control at 35 g/ha

These solved cases illustrate the format of a correct answer.
Nc1c(F)c(-c2cc3c(cc2F)OC(F)(F)O3)nc(C(=O)O)c1Cl [Compound 13]	60 to 74%
Nc1nc(-c2cc3c(cc2F)OC(F)(F)O3)nc(C(=O)O)c1Cl [Compound 57]	0 to 29%

Q: Suppose we examine the compound COC(=O)c1nc(-c2ccc(Br)c3c2OC(F)(F)O3)c(F)c(N)c1Cl [Compound 78] ; what pest or weed control at 35 g/ha value has been reported?
Result: 60 to 74%

Q: Suppose we examine the compound COc1c(N)nc(-c2ccc3c(c2)OC(F)(F)O3)nc1C(=O)O [Compound 63] ; what pest or weed control at 35 g/ha value has been reported?
Result: 95 to 100%

Q: Suppose we examine the compound COC(=O)c1nc(-c2ccc3c(c2)OC(C)(C)O3)nc(N)c1OC [Compound 67] ; what pest or weed control at 35 g/ha value has been reported?
Result: 0 to 29%

Q: Suppose we examine the compound Nc1c(F)c(-c2ccc3c(c2)OC(F)(F)O3)nc(C(=O)O)c1Cl [Compound 7] ; what pest or weed control at 35 g/ha value has been reported?
Result: 95 to 100%

Q: Suppose we examine the compound Nc1c(F)c(-c2ccc3c(c2F)OC(F)(F)O3)nc(C(=O)O)c1Cl [Compound 11] ; what pest or weed control at 35 g/ha value has been reported?
Result: 60 to 74%

Q: Suppose we examine the compound C=Cc1c(C(=O)OC)nc(-c2cc3c(cc2F)OC(F)(F)O3)c(F)c1N [Compound 27] ; what pest or weed control at 35 g/ha value has been reported?
Result: 0 to 29%

Q: Suppose we examine the compound Cc1c(-c2cc(N)c(Cl)c(C(=O)O)n2)ccc2c1OC(F)(F)O2 [Compound 36] ; what pest or weed control at 35 g/ha value has been reported?
Result: 0 to 29%

Q: Suppose we examine the compound COC(=O)c1nc(-c2ccc3c(c2Cl)OC(F)(F)O3)cc(N)c1Cl [Compound 33] ; what pest or weed control at 35 g/ha value has been reported?
Result: 60 to 74%

Q: Suppose we examine the compound C=Cc1c(C(=O)O)nc(-c2ccc3c(c2)OC(F)(F)O3)c(F)c1N [Compound 30] ; what pest or weed control at 35 g/ha value has been reported?
Result: 45 to 59%

Q: Suppose we examine the compound Nc1c(F)c(-c2ccc(F)c3c2OC(F)(F)O3)nc(C(=O)O)c1Cl [Compound 77] ; what pest or weed control at 35 g/ha value has been reported?
Result: 0 to 29%

---

Reported pest or weed control at 140 g/ha values for a set of compounds
# Tested on: Key Broadleaf Weed and Crop Species
# TEST: Post-Emergent Test II: postemergent herbicidal activity, visual rating after 14 d (Table 7)
# Type: in vivo
# CONDITION SUMMARY: post-emergence, 336 h, sunflower (Helianthus annuus), 140 g ai/ha, read-out: Visual Growth Reduction (%) 14 Days After Application HELAN

COc1cc(-c2nc(C(=O)O)c(Cl)c(N)c2F)cc2c1OCO2	0 to 29%

Q: Suppose we examine the compound COC(=O)c1nc(-c2c(F)cc3c(c2F)OC(F)(F)O3)cc(N)c1Cl ; what pest or weed control at 140 g/ha value has been reported?
Result: 60 to 74%
